These measurements were taken from a melting point compilation (Tetko et al.; mined from patent text by program, amines drawn as free bases though some values may be those of a salt).

observation-type: melting point

Consider the worked cases shown below.
CCCCNCCCOc1ccc(-c2ccc(C(=O)O)cc2)cc1-c1ccc2c(c1)C(C)(C)CCC2(C)C: 238 °C
CCOC(=O)CN1C(=O)c2cccc3c(Cl)ccc1c23: 138 to 140 °C
COCCOCCCCC(=O)c1ccc(Br)cc1: 25.5 to 26.5 °C
CS(=O)(=O)N1CCN(c2cc3ccccc3c(=O)[nH]2)CC1: 257 to 259 °C
COc1cc(C)c(N)cc1C: 75 to 76 °C

Incoming: Look up and report measured melting point for this entry: "O=S(=O)(Nc1cc(Br)nc(Br)c1)c1cccc(C(F)(F)F)c1"
Outgoing: 149 to 151 °C

Incoming: Look up and report measured melting point for this entry: O=C(O)CC1Cc2ccc(O)cc2OC1=O (configuration not stated)
Outgoing: 174 to 175 °C

Incoming: Look up and report measured melting point for this entry: "CC(=O)N1CCc2sc(C)c(C(=O)CCCN3CCC(c4noc5cc(F)ccc45)CC3)c2C1"
Outgoing: 116 to 118 °C

Incoming: Look up and report measured melting point for this entry: "CCOC(=O)CC(=O)NS(=O)(=O)c1ccc([N+](=O)[O-])cc1"
Outgoing: 97 °C

Incoming: Look up and report measured melting point for this entry: "CCCc1c(Cl)oc2ccc(I)cc2c1=O"
Outgoing: 103 to 105 °C

Incoming: Look up and report measured melting point for this entry: "Nc1ccc(OCCCl)cc1"
Outgoing: 91 to 92 °C

Incoming: Look up and report measured melting point for this entry: "CC(C)n1cc(-c2ccc(NS(=O)(=O)c3ccccc3)cc2)c2c(N)ncnc21"
Outgoing: 238 to 240 °C

Incoming: Look up and report measured melting point for this entry: "CCCc1c(OCCCSc2nnc(NC(=O)CC(=O)O)s2)ccc(C(C)=O)c1O"
Outgoing: 172 to 174 °C

Incoming: Look up and report measured melting point for this entry: "C(C#Cc1c2ccccc2cc2ccccc12)#Cc1c2ccccc2cc2ccccc12"
Outgoing: 280 to 282 °C

Incoming: Look up and report measured melting point for this entry: "Cn1c(Br)nc2c1C(=O)N1CCN=C1N2Cc1ccc(Cl)cc1"
Outgoing: 206 to 207 °C

Incoming: Look up and report measured melting point for this entry: "COc1ccc(Nc2ccnc3nc(CO)ccc23)cc1"
Outgoing: 275 to 281 °C

Incoming: Look up and report measured melting point for this entry: "Nc1nc(CCc2ccccc2)nc2nc(-c3ccco3)nn12"
Outgoing: 235 to 237 °C

Incoming: Look up and report measured melting point for this entry: "O=C1CCCCN1S(=O)(=O)c1ccc(N2CCCCCC2)cc1"
Outgoing: 85 to 88 °C

====

observation-type: melting point

Cc1cc(O)n2nc(S(=O)(=O)Nc3ccccc3C(F)(F)F)nc2n1: 245 to 247 °C
O=C(CCCCCN1CCN(c2ccc3c(c2)CCC3)CC1)N1Cc2ccccc2C1: 131 °C
Cc1cn(C)c2c1N(C(=O)CN1CCCC1)c1ccccc1NC2=O: 210 to 212 °C
O=C(NCCCc1ccc(CC(CCCc2ccccc2)(C(=O)OCc2ccccc2)C(=O)OCc2ccccc2)cc1)c1ccc(-c2ccccn2)cc1: 118 to 120 °C

Incoming: Look up and report measured melting point for this entry: "COc1cscc1C(=O)NN"
Outgoing: 91 to 92 °C

Incoming: Look up and report measured melting point for this entry: "COc1c(C2CCN(CCCCNC(=O)c3cc(-c4ccc(C#N)cc4)nn3CCO)CC2)ccc2c1CCCC2"
Outgoing: 152 °C

Incoming: Look up and report measured melting point for this entry: "O=C1C(=Cc2ccncc2)C(=O)c2ccccc21"
Outgoing: 152 to 157 °C

Incoming: Look up and report measured melting point for this entry: CNC(=O)C1CCc2c(C(=O)c3ccccc3)cccc21 (stereo unspecified)
Outgoing: 145 to 146 °C

Incoming: Look up and report measured melting point for this entry: "COc1cc(C=Cc2nc3c(c(=O)n(C)c(=O)n3C)n2C)cc(OC)c1OCc1ccccc1"
Outgoing: 190 to 195 °C

Incoming: Look up and report measured melting point for this entry: "COC(=O)c1c(C(=O)OC)c(-c2nccnc2C)n(NS(=O)(=O)c2ccc(C)cc2)c1C"
Outgoing: 155 to 156 °C

Incoming: Look up and report measured melting point for this entry: "CCOC(=O)c1c(O)c2ccc(C)nc2n(Cc2ccccc2)c1=O"
Outgoing: 155 to 157 °C

Incoming: Look up and report measured melting point for this entry: C#CCOc1cnc(C2=NC(C)(C(C)C)C(=O)N2)c(C(=O)OC)c1 (stereo unspecified)
Outgoing: 83 to 84 °C

Incoming: Look up and report measured melting point for this entry: CCCOC(=O)NCCCC1(O)c2ccccc2C=Cc2c(C)cccc21 (stereo unspecified)
Outgoing: 157 to 159 °C

Incoming: Look up and report measured melting point for this entry: COc1ccc(C2(C#Cc3cccc([N+](=O)[O-])c3)CCCC(=O)C2)cc1OC1CCCC1 (stereo unspecified)
Outgoing: 46 to 48 °C

Incoming: Look up and report measured melting point for this entry: "COc1ccc(C(=NO)c2c(F)cccc2F)c(Cl)c1Cl"
Outgoing: 180 to 186 °C

Incoming: Look up and report measured melting point for this entry: "COC(CN/C=C\C(=C(C#N)C#N)c1ccc2cc(N(C)C)ccc2c1)OC"
Outgoing: 158 to 159 °C

Incoming: Look up and report measured melting point for this entry: "Cc1nn2ccccc2c1C(=O)C1=CNCCC1"
Outgoing: 207 to 208 °C

Incoming: Look up and report measured melting point for this entry: "CCCc1c(C(=O)C(C)C)c2ccc(C(N)=O)cc2n1Cc1ccccc1NC(=O)NC"
Outgoing: 222 to 223 °C

Incoming: Look up and report measured melting point for this entry: "O=S(=O)(Nc1ccc(Br)cc1)C(F)(F)F"
Outgoing: 52 to 54 °C

Incoming: Look up and report measured melting point for this entry: "CN1CCCc2ccc(C(=O)CCC(=O)N3CCC(c4ccc(Cl)cc4)CC3)cc2C1"
Outgoing: 133 to 134 °C

Incoming: Look up and report measured melting point for this entry: "CSCC(=O)N=C(SC)N(C)N=Cc1ccccc1"
Outgoing: 68 to 70 °C
